SYSTEM_TESTED: His6-p37AUF1(78-239) (human, UniProt Q14103-4 78-239)
Sequence (Q14103 other isoform, or with tags, fused parts or gaps): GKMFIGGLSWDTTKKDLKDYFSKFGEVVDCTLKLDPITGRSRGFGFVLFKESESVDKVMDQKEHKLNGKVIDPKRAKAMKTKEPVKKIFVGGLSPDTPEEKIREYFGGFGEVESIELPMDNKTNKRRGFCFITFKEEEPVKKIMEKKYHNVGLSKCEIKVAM
EXPERIMENT: fluorescence anisotropy; Anisotropy: 10 mM Tris-HCl pH 8.0, 100 mM KCl (50 mM for Fl-ARE2), 0.5 mM EDTA, 0.1 ug/ul acetylated BSA, 1 ug/ul heparin, 2 mM DTT, 25 C, RNA 0.2-0.4 nM; EMSA: same with 100 mM KCl, 10% glycerol, 1 nM RNA, on ice, UV crosslinked
MEASUREMENT_PARAMETERS: protein: recombinant; label: 3' fluorescein
Listing of entries alongside the reported Kd.
QUANTITY_MEASURED: Kd (nM)

UUAUUUAUUUAUUUAG (ssRNA) [ARE15-G-Fl] :: 796
CCCCUGGCUCACAAAUACCUUAUUUAUUUAUUUAG (ssRNA) [ARE1-Fl] :: 505
